System: BT-549
Assay text: NCI-60 panel test
Type: cell-based
Test conditions: Homo sapiens; BT-549, NCI-60 5-dose study
With a cut-off of 1000 nM, any GI50 strictly below it is called 1.0; any GI50 meeting it or above is called 0.0.

Task: In the record for COc1cccc(Oc2ccccc2NC(=O)CNC(=O)c2cccc3ccccc23)c1 [PCNA7/ AOH1996] , is GI50 less than 1000 nM?
Output: 1.0

Task: In the record for COc1ccc(Oc2ccccc2NC(=O)CNC(=O)c2cccc3ccccc23)cc1 [PCNA6] , is GI50 less than 1000 nM?
Output: 0.0

Task: In the record for O=C(CNC(=O)c1cccc2ccccc12)Nc1ccccc1Oc1ccccc1 [AOH1160] , is GI50 less than 1000 nM?
Output: 1.0

Task: In the record for O=C(CNC(=O)c1cccc2ccccc12)Nc1ccccc1Oc1cccc(O)c1 [PCNA2] , is GI50 less than 1000 nM?
Output: 0.0

Task: In the record for O=C(CNC(=O)c1cccc2ccccc12)Nc1ccccc1Oc1ccc(O)cc1 [PCNA1] , is GI50 less than 1000 nM?
Output: 0.0
